The entries below are paired with their reported pEC50.
target: TRβ (Homo sapiens); construct: expressed in transfected cells; host or cells: HEK293; experiment: TR reporter-gene assay (Gal4 DBD hybrid, luciferase), TRβ; format: cell-based; conditions: HEK293-derived reporter cells, 24 hr treatment; read-out: TRβ EC50
pEC50: −log10 of the molar value.

Fill blank: measured pEC50 of the molecule O=C(O)Cc1cc(Cl)c(Cc2ccc(O)c(C(=O)N3CCCCC3)c2)c(Cl)c1 is ____.
< 6.00

Fill blank: measured pEC50 of the molecule CC(C)c1c(O)ccc(Cc2c(Cl)cc(SCC(=O)O)cc2Cl)c1F is ____.
7.00 to 8.00

Fill blank: measured pEC50 of the molecule CC(C)c1cc(Cc2c(Cl)cc(NCC(=O)O)cc2Cl)ccc1O is ____.
7.00 to 8.00

Fill blank: measured pEC50 of the molecule Cc1cc(CSCC(=O)O)cc(Cl)c1Cc1ccc(O)c(C(C)C)c1 is ____.
7.00 to 8.00

Fill blank: measured pEC50 of the molecule C/C(=C\c1cc(Cl)c(Cc2ccc(O)c(C(C)C)c2F)c(Cl)c1)C(=O)O is ____.
> 8.00

Fill blank: measured pEC50 of the molecule CC(C)c1c(O)ccc(Cc2c(Cl)cc(CC3NC(=O)NC3=O)cc2Cl)c1F (centres unmarked) is ____.
< 6.00

Fill blank: measured pEC50 of the molecule CONC(=O)Cc1cc(Cl)c(Cc2ccc(O)c(C(C)C)c2F)c(Cl)c1 [Compound 104] is ____.
6.00 to 7.00

Fill blank: measured pEC50 of the molecule CC(C)c1c(O)ccc(Cc2c(Cl)cc(NCC(=O)O)c(F)c2Cl)c1F is ____.
> 8.00

---

Target: TRβ (Homo sapiens, UniProt P10828)
Construct: expressed in transfected cells; host or cells: HEK293
Sequence (P10828 217-461 limits assumed): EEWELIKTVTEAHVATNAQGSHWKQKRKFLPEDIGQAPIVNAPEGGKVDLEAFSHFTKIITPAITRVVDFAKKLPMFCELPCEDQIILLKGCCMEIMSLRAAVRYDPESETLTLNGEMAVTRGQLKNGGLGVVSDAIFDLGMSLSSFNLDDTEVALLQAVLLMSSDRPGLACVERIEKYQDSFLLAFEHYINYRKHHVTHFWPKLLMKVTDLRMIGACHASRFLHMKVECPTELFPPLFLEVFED
Assay: TR reporter-gene assay (Gal4 DBD hybrid, luciferase), TRβ
Format: cell-based
Settings: HEK293-derived reporter cells, 24 hr treatment; read-out: TRβ EC50
Measurement type: EC50

Sample records with EC50:
Compound	Measurement type	Data value
CC(C)c1cc(Cc2c(Cl)cc(/C=C/CC(=O)O)cc2Cl)ccc1O	EC50	0.01 to 0.1 µM
Cc1cc(SCC(=O)O)cc(Cl)c1Cc1ccc(O)c(C(C)C)c1	EC50	0.1 to 1 µM

Fill blank: measured EC50 of the compound CC(C)c1cc(Cc2c(Cl)cc(N(C)CC(=O)O)cc2Cl)ccc1O is ____.
> 1 µM

Fill blank: measured EC50 of the compound CC(C)c1cc(Cc2c(Cl)cc(S(=O)(=O)CC(=O)O)cc2Cl)ccc1O is ____.
> 1 µM

Fill blank: measured EC50 of the compound CC(C)c1cc(Cc2c(Cl)cc(C[S+]([O-])CC(=O)O)cc2Cl)ccc1O (stereo not drawn) [Compound 210] is ____.
> 1 µM

---

The entries below are paired with their reported pEC50.
Molecular target: TRβ (Homo sapiens, UniProt P10828)
Construct: expressed in transfected cells; host or cells: HEK293
Sequence (P10828 217-461 limits assumed): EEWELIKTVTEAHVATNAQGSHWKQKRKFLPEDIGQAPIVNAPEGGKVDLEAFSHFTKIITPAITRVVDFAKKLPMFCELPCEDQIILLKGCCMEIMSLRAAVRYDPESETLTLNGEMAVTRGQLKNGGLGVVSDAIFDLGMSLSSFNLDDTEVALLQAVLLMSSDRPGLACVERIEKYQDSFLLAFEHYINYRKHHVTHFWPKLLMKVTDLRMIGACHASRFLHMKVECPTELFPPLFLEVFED
Test: TR reporter-gene assay (Gal4 DBD hybrid, luciferase), TRβ
Format: cell-based
pEC50: −log10 of the molar value.

Smi	pEC50
CC(C)c1c(O)ccc(Cc2c(Cl)cc(CC(=O)O)cc2Cl)c1F	> 8.00

Please turn your attention to the following entry.
Fill blank: measured pEC50 of the compound C[Si](C)(C)c1c(O)ccc(Cc2c(Cl)cc(CC(=O)O)c(F)c2Cl)c1F is ____.
6.00 to 7.00

---

target: recombinant human FAAH (rhFAAH) (Homo sapiens, UniProt O00519); construct: purchased Cayman Chemical (Ann Arbor, MI, USA); assay: FAAH substrate evaluation (formation of acid metabolite, LC-MS/MS); type: biochemical; design: key: A: ke is equal to or less than 1.0; B: ke is greater than 1.0 and less than or equal to 2.5; C: ke is greater than 2.5; NC: no conversion; details: 0.5 ng/μL rhFAAH, 1 μM test compound, pH 8.0, room temperature, 0-60 minutes
Sequence (O00519 whole entry): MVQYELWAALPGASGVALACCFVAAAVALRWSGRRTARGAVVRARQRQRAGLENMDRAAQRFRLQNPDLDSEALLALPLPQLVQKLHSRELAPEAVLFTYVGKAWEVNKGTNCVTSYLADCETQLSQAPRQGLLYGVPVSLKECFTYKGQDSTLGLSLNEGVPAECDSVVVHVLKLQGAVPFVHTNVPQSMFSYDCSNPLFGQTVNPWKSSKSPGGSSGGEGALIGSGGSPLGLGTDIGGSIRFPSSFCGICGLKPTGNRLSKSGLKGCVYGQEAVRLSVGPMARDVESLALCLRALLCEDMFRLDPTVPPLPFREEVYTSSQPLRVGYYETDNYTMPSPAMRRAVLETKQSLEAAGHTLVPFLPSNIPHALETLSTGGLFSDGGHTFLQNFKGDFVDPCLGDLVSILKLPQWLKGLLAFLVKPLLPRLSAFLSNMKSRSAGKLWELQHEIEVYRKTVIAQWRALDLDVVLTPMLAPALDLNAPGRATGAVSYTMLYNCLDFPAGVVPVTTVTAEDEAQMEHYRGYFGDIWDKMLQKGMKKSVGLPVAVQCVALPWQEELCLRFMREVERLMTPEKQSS
Measurement type: ke, observed rate constant for the acid metabolite formation

Compound	Data value
CNC(=O)/C=C/c1cc(C)c(Cc2ccc(O)c(C(C)C)c2F)c(Cl)c1 [Compound 239]	NC
C=C(Cc1cc(Cl)c(Cc2ccc(O)c(C(C)C)c2F)c(Cl)c1)C(=O)NC [Compound 177]	NC

---

molecular target: TRβ (Homo sapiens, UniProt P10828); construct: expressed in transfected cells; host or cells: HEK293; experiment: TR reporter-gene assay (Gal4 DBD hybrid, luciferase), TRβ; type: cell-based; conditions: HEK293-derived reporter cells, 24 hr treatment; read-out: TRβ EC50
pEC50: −log10 of the molar value.
The entries below are paired with their reported pEC50.

Molecule	pEC50
CC(C)c1c(O)ccc(Cc2c(Cl)cc(NCC(=O)O)cc2Cl)c1F [Compound 46]	> 8.00
CC(C)c1cc(Cc2c(Cl)cc(CC(=O)O)cc2Cl)ccc1O [Compound 6]	6.00 to 7.00
CC(C)c1cc(Cc2c(Cl)cc(COCC(=O)O)cc2Cl)ccc1O [Compound 28]	7.00 to 8.00
CONC(=O)Cc1cc(Cl)c(Cc2ccc(O)c(C(C)C)c2F)c(Cl)c1 [Compound 208]	6.00 to 7.00
C/C(=C\c1cc(C)c(Cc2ccc(O)c(C(C)C)c2F)c(Cl)c1)C(=O)O [Compound 248]	7.00 to 8.00

Please turn your attention to the following entry.
Fill blank: measured pEC50 of the molecule CC(C)c1cc(Cc2c(Cl)cc(C=C(C(=O)O)C(=O)O)cc2Cl)ccc1O [Compound 108] is ____.
< 6.00

---

The entries below are paired with their reported EC50.
biological target: TRα (Homo sapiens, UniProt P10827); construct: expressed in transfected cells; host or cells: HEK293; experiment: TR reporter-gene assay (Gal4 DBD hybrid, luciferase), TRα; assay type: cell-based; conditions: HEK293-derived reporter cells, 24 hr treatment; read-out: TRα EC50
Sequence (P10827 1-410 isoform P10827-2): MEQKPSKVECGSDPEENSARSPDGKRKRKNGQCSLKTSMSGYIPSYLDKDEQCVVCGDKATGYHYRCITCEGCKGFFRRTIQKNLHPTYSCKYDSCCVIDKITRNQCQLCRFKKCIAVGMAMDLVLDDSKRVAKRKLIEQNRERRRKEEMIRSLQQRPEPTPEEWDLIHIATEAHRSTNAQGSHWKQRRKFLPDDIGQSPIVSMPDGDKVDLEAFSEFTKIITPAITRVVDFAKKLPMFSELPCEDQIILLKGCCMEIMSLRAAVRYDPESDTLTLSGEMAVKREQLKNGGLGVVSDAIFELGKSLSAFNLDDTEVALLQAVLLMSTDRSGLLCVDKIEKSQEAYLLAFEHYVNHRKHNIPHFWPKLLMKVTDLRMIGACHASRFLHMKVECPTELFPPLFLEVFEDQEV

Short answer please: EC50, TRα (Homo sapiens, UniProt P10827), entry CC(C)c1cc(Cc2c(Cl)cc(SCC(=O)O)c(F)c2Cl)ccc1O [Compound 204]
10 to 100 nM

Short answer please: EC50, TRα (Homo sapiens, UniProt P10827), entry CC(C)c1cc(Cc2c(Cl)cc(CNCC(=O)O)cc2Cl)ccc1O [Compound 30]
100 to 1000 nM

Short answer please: EC50, TRα (Homo sapiens, UniProt P10827), entry CC(C)c1cc(Cc2c(Cl)cc(CCC(=O)O)cc2Cl)ccc1O [Compound 11]
10 to 100 nM

Short answer please: EC50, TRα (Homo sapiens, UniProt P10827), entry CC(C)c1c(O)ccc(Cc2c(Cl)cc(CCC(=O)O)cc2Cl)c1F [Compound 40]
< 10 nM

---

biological target: TRβ (Homo sapiens); construct: expressed in transfected cells; host or cells: HEK293; experiment: TR reporter-gene assay (Gal4 DBD hybrid, luciferase), TRβ; assay type: cell-based; conditions: HEK293-derived reporter cells, 24 hr treatment; read-out: TRβ EC50
The entries below are paired with their reported EC50.

Sample records with EC50:
Molecule	Experimental target	Data value
CC(C)c1c(O)ccc(Cc2c(Cl)cc(C(=O)O)cc2Cl)c1F	TRβ (Homo sapiens)	> 1000 nM
C=C(Cc1cc(Cl)c(Cc2ccc(O)c(C(C)C)c2F)c(Cl)c1)C(=O)O	TRβ (Homo sapiens)	< 10 nM
CC(C)c1c(O)ccc(Cc2c(Cl)cc(NC(=O)C(=O)O)cc2Cl)c1F	TRβ (Homo sapiens)	100 to 1000 nM
CC(C)c1cc(Cc2c(Cl)cc(NCCC(=O)O)cc2Cl)ccc1O	TRβ (Homo sapiens)	10 to 100 nM

Please turn your attention to the following entry.
Short answer please: EC50, TRβ (Homo sapiens), entry CC(C)c1cc(Cc2c(Cl)cc([S+]([O-])CC(=O)O)cc2Cl)ccc1O (centres unmarked)
> 1000 nM
